- protocol-details: Metabolic stability in human liver microsomes assessed as remains after 60 mins at 5 uM
- Type: ADME, Microsome
- condition-notes: read-out: Stability
remaining at 1 h, 5 µM strictly under 90% means yes (1); at 90% or over means no (0).

# example entries with known answers
CS(=O)(=O)Nc1ccc2c(c1)S(=O)(=O)N=C(c1c(O)c3cccn3n(Cc3ccc(F)c(Cl)c3)c1=O)N2	no (0)
CC(C)CCn1c(=O)c(C2=NS(=O)(=O)c3cc(NS(C)(=O)=O)ccc3N2)c(O)c2cc(F)cn21	yes (1)
O=c1c(C2=NS(=O)(=O)c3cc(C4CCCS4(=O)=O)ccc3N2)c(O)c2cccn2n1Cc1ccc(F)cc1 (racemic)	no (0)
CS(=O)(=O)Nc1ccc2c(c1)S(=O)(=O)N=C(c1c(O)c3cccn3n(Cc3ccc(F)cc3)c1=O)N2	yes (1)

Shifting focus to the molecule that follows.
Query :: In the record for "CC(C)CCn1c(=O)c(C2=NS(=O)(=O)c3cc(N(C)S(C)(=O)=O)ccc3N2)c(O)c2cccn21" , is remaining at 1 h, 5 µM less than 90%?
Result :: yes (1)

###

- protocol-details: Metabolic stability in human liver microsomes assessed as half life at 5 uM
- Assay type: ADME, Microsome
- condition-notes: liver microsomes
measurement-label: half-life at 5 µM

Sample records with half-life at 5 µM:
CC(C)CCn1c(=O)c(C2=NS(=O)(=O)c3ccccc3N2)c(O)c2cccn21	0.233 h
O=c1c(C2=NS(=O)(=O)c3cc(C4CCCS4(=O)=O)ccc3N2)c(O)c2cccn2n1Cc1ccc(F)cc1 (racemic)	> 1 h
CC(C)CCn1c(=O)c(C2=NS(=O)(=O)c3cc(NS(C)(=O)=O)ccc3N2)c(O)c2cc(F)cn21	> 1 h
CS(=O)(=O)Nc1ccc2c(c1)S(=O)(=O)N=C(c1c(O)c3cccn3n(Cc3ccc(F)c(Cl)c3)c1=O)N2	> 1 h
CC(C)CCn1c(=O)c(C2=NS(=O)(=O)c3cc(N(C)S(C)(=O)=O)ccc3N2)c(O)c2cccn21	> 1 h
CN(c1ccc2c(c1)S(=O)(=O)N=C(c1c(O)c3cccn3n(Cc3ccc(F)cc3)c1=O)N2)S(C)(=O)=O	> 1 h

# evaluate next
Query :: // lookup half-life at 5 µM for "CC(C)CCn1c(=O)c(C2=NS(=O)(=O)c3cc(NS(=O)(=O)C4CC4)ccc3N2)c(O)c2cccn21"
Result :: 0.983 h

###

Listed molecules paired with reported log10(AUC)
- System: Cynomolgus monkey
- protocol-details: AUC (infinity) in cynomolgus monkey at 1 mg/kg, iv
- Format: ADME, organism-based, Macaca fascicularis, Plasma
- Design: time infinity, dose 1 mg/kg, route intravenous
- condition-notes: in vivo
Each number you see is log10 of AUC, and the unit inside the log is ng·h/mL.

Some molecules with known log10(AUC) results, for comparison:
CC(C)CCn1c(=O)c(C2=NS(=O)(=O)c3cc(NS(=O)(=O)C4CC4)ccc3N2)c(O)c2cccn21	3.58
CC(C)CCn1c(=O)c(C2=NS(=O)(=O)c3cc(N(C)S(C)(=O)=O)ccc3N2)c(O)c2cccn21	3.03
CS(=O)(=O)Nc1ccc2c(c1)S(=O)(=O)N=C(c1c(O)c3cccn3n(Cc3ccc(F)cc3)c1=O)N2	2.73

Query :: For the molecule "CN(c1ccc2c(c1)S(=O)(=O)N=C(c1c(O)c3cccn3n(Cc3ccc(F)cc3)c1=O)N2)S(C)(=O)=O" , what log10(AUC) is on record?
Result :: 3.25

Query :: What log10(AUC) value was documented for this molecule, "CC(C)(C)CCn1c(=O)c(C2=NS(=O)(=O)c3cc(NS(C)(=O)=O)ccc3N2)c(O)c2cccn21" ?
Result :: 3.08

Query :: For "CC(C)CCn1nc(-c2cccs2)c(O)c(C2=Nc3ccc(NS(C)(=O)=O)cc3S(=O)(=O)N2)c1=O" , what is its reported log10(AUC)?
Result :: 3.12

Query :: Would you mind telling me what log10(AUC) value was observed for "CC(C)CCn1c(=O)c(C2=NS(=O)(=O)c3ccccc3N2)c(O)c2cccn21" ?
Result :: 4.31

###

- System: Liver microsomes
- protocol-details: Metabolic stability in human liver microsomes assessed as half life at 5 uM
- Type: ADME, Microsome
- condition-notes: microsomes, 5 µM
measurement-label: t1/2 (min)
Enter your answer as a number in min; do not include the unit.

Query :: Fill blank: measured t1/2 of the molecule "O=c1c(C2=NS(=O)(=O)c3ccccc3N2)c(O)c2cccn2n1Cc1ccc(F)cc1" is ____.
Result :: 45

###

- protocol-details: Metabolic stability in cynomolgus monkey liver microsomes assessed as half life at 1 uM
- Assay type: ADME, Macaca fascicularis, Microsome
measurement-label: half-life at 1 µM (h)
Return type: number; implicit unit h.

CC(C)CCn1c(=O)c(C2=NS(=O)(=O)c3ccccc3N2)c(O)c2cccn21	0.183
CC(C)CCn1c(=O)c(C2=NS(=O)(=O)c3cc(N(C)S(C)(=O)=O)ccc3N2)c(O)c2cccn21	1

Query :: What measured half-life at 1 µM goes with "CC(C)(C)CCn1c(=O)c(C2=NS(=O)(=O)c3cc(NS(C)(=O)=O)ccc3N2)c(O)c2cccn21" ?
Result :: 0.233

###

Readings of half-life at 5 µM for the listed molecules
- protocol-details: Metabolic stability in human liver microsomes assessed as half life at 5 uM
- Assay type: ADME, Microsome
- condition-notes: liver microsomes
# value in min; strip the unit string

Query :: Can you look up the measured half-life at 5 µM of "CC(C)(C)CCn1c(=O)c(C2=NS(=O)(=O)c3cc(NS(C)(=O)=O)ccc3N2)c(O)c2cccn21" for me?
Result :: 10

Query :: What value of half-life at 5 µM has been recorded for this entry: "CC(C)CCn1c(=O)c(C2=Nc3ccc(NS(C)(=O)=O)cc3S(=O)(=O)N2)c(O)c2cccn21"
Result :: 42

Query :: Query: half-life at 5 µM; subject: "CN(c1ccc2c(c1)S(=O)(=O)N=C(c1c(O)c3cccn3n(CCC(C)(C)C)c1=O)N2)S(C)(=O)=O"
Result :: 49

###

# clearance annotations
- protocol-details: Clearance in cynomolgus monkey at 1 mg/kg, iv
- Assay type: ADME, organism-based, Macaca fascicularis
- Design: dose 1 mg/kg, route intravenous
- condition-notes: in vivo
The reply should be a number in mL/min/kg, with the unit left off.

Some compounds with recorded clearance:
CN(c1ccc2c(c1)S(=O)(=O)N=C(c1c(O)c3cccn3n(Cc3ccc(F)cc3)c1=O)N2)S(C)(=O)=O	9
CC(C)CCn1c(=O)c(C2=NS(=O)(=O)c3cc(NS(=O)(=O)C4CC4)ccc3N2)c(O)c2cccn21	5
CC(C)CCn1c(=O)c(C2=NS(=O)(=O)c3cc(N(C)S(C)(=O)=O)ccc3N2)c(O)c2cccn21	16

Query :: Requested read-out: clearance. Entry: "CC(C)(C)CCn1c(=O)c(C2=NS(=O)(=O)c3cc(NS(C)(=O)=O)ccc3N2)c(O)c2cccn21"
Result :: 14

Query :: Returns the measured clearance for the input compound. Input: "CC(C)CCn1c(=O)c(C2=NS(=O)(=O)c3ccccc3N2)c(O)c2cccn21"
Result :: 49

Query :: // query clearance value for entry "CS(=O)(=O)Nc1ccc2c(c1)S(=O)(=O)N=C(c1c(O)c3cccn3n(Cc3ccc(F)cc3)c1=O)N2"
Result :: 31

###

Reported CC50 at 72 h values follow for various compounds
- protocol-details: Cytotoxicity against human Huh7/C24 cells after 72 hrs
- Format: cell-based, Huh-7

CS(=O)(=O)Nc1ccc2c(c1)S(=O)(=O)N=C(c1c(O)c3cccn3n(Cc3ccc(F)cc3)c1=O)N2	> 1000 nM
CN(c1ccc2c(c1)S(=O)(=O)N=C(c1c(O)c3cccn3n(Cc3ccc(F)cc3)c1=O)N2)S(C)(=O)=O	> 10000 nM

Query :: Endpoint output: CC50 at 72 h of "CC(C)(C)CCn1c(=O)c(C2=NS(=O)(=O)c3cc(NS(C)(=O)=O)ccc3N2)c(O)c2cccn21" . Value?
Result :: > 1000 nM
